HC50 at 1 h reference
procedure text: Hemolytic activity against rabbit erythrocytes after 60 mins by spectrophotometric analysis
Format: ADME, cell-based, Oryctolagus cuniculus, Erythrocyte

{"columns": ["given smiles", "modifier", "HC50 at 1 h, µM"],
 "data": [
  ["CCN(CC)CCCCOc1cc2oc3cc(OCCCCN(CC)CC)c(OC)c(CC=C(C)C)c3c(=O)c2c(O)c1CC=C(C)C", "=", 19.6],
  ["CCN(CC)CCCOc1cc2oc3cc(OCCCN(CC)CC)c(OC)c(CC=C(C)C)c3c(=O)c2c(O)c1CC=C(C)C", "=", 16.3],
  ["COc1c(OCCCCN2CCCCC2)cc2oc3cc(OCCCCN4CCCCC4)c(CC=C(C)C)c(O)c3c(=O)c2c1CC=C(C)C", "=", 19.3],
  ["COc1c(OCCCCn2cccn2)cc2oc3cc(OCCCCn4cccn4)c(CC=C(C)C)c(O)c3c(=O)c2c1CC=C(C)C", ">", 200],
  ["COc1c(OCCCCN2CCCC2)cc2oc3cc(OCCCCN4CCCC4)c(CC=C(C)C)c(O)c3c(=O)c2c1CC=C(C)C", "=", 25],
  ["CCN(CC)CCCCCOc1cc2oc3cc(OCCCCCN(CC)CC)c(OC)c(CC=C(C)C)c3c(=O)c2c(O)c1CC=C(C)C", "=", 14],
  ["COc1c(O)cc2oc3cc(O)c(CC=C(C)C)c(O)c3c(=O)c2c1CC=C(C)C", "=", 9],
  ["COc1c(OCCCCn2cncn2)cc2oc3cc(OCCCCn4cncn4)c(CC=C(C)C)c(O)c3c(=O)c2c1CC=C(C)C", ">", 200]
]}

Ref: ChEMBL document CHEMBL2331269
